system: plasma protein; assay: In vitro plasma protein binding; format: in vitro ADME; details: male, human, heparinized plasma
OBSERVATION_TYPE: fraction unbound at 15 min, 10 μg/mL

Consider the compound O=C1N=C(N2CCOCC2)CN1c1ccc(Cl)cc1 [Imepitoin] and give its recorded fraction unbound at 15 min, 10 μg/mL. 0.43

###

test: Dose linearity of imepitoin after oral dosing; assay type: in vivo, beagle dogs; conditions: both, beagle, dog, plasma, po, 20 mg/kg
OBSERVATION_TYPE: Cmax

Consider the compound O=C1N=C(N2CCOCC2)CN1c1ccc(Cl)cc1 [Imepitoin] and give its recorded Cmax. 3500 ng/mL

###

target: CYP2D6 (Homo sapiens, UniProt P10635); experiment: In vitro enzyme inhibition, recombinant CYP, fluorescent metabolites; format: in vitro ADME
Sequence (P10635 whole entry): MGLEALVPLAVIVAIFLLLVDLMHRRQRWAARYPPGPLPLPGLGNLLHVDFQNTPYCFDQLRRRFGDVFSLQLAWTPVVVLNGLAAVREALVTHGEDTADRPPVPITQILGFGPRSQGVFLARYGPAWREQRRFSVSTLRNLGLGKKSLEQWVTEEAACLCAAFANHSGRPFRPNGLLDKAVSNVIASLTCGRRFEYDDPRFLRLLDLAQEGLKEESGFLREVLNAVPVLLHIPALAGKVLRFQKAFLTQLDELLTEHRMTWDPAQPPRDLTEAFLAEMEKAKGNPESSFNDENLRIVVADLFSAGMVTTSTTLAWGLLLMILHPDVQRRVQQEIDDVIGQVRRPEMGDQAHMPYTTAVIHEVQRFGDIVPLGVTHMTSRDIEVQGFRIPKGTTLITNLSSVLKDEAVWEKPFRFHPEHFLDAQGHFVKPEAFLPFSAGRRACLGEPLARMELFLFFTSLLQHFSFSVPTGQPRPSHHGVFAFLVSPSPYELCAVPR
pIC50: −log10 of the molar value.
OBSERVATION_TYPE: pIC50

Consider the molecule O=C1N=C(N2CCOCC2)CN1c1ccc(Cl)cc1 [Imepitoin] and give its recorded pIC50. < 4.00
